From: patent US11286268B1

System Name: recombinant eIF4E (Homo sapiens (Human))
Sequence (P06730 whole entry): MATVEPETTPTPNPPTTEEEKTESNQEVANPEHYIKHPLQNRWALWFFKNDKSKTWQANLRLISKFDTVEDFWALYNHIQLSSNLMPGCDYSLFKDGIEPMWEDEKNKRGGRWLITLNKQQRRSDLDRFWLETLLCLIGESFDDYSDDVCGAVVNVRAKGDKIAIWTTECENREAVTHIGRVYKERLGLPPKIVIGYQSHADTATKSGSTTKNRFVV
Protocol Description: Fluorescence polarization competition assay for eIF4E binding potency
Condition Set: inhibition of eIF4E/EDA-m7GDP-ATTO-550 binding by 50%; Table 4B calculated values; read-out: IC50
Measurement Label: log10(IC50) (log10 of the value in nM)
// do not treat as linear: log10 of IC50, unit nM

Please review the entries below; each comes with its answer.
# lookup: Cc1nc2cc(C(F)(F)F)cc(C#N)c2c(=O)n1CCOc1ccc(Cl)cc1-c1coc2c(C(=O)O)cccc12 [compound 300] on recombinant eIF4E (Homo sapiens (Human)), log10(IC50) = 1.39

# lookup: Cc1cc(-c2cc(Cl)ccc2OCCn2c(C)nc3cnc(OC(F)F)c(C#N)c3c2=O)c2scc(C(=O)O)c2n1 [compound 602] on recombinant eIF4E (Homo sapiens (Human)), log10(IC50) = 1.01

# lookup: O=C(O)c1cccc(-c2cc(Cl)ccc2OCCn2cnc3ccccc3c2=O)c1 [compound 11] on recombinant eIF4E (Homo sapiens (Human)), log10(IC50) = 3.84

# lookup: Cc1cnc2c(C(=O)O)csc2c1-c1cc(Cl)ccc1OCCn1c(C)nc2cc(C(F)(F)F)cc(C#N)c2c1=O [compound 495] on recombinant eIF4E (Homo sapiens (Human)), log10(IC50) = 2.37

# lookup: Cc1cc(-c2cc(Cl)ccc2OCCn2c(C)nc3cnc(C(C)C)c(C#N)c3c2=O)c2scc(C(=O)O)c2n1 [compound 432] on recombinant eIF4E (Homo sapiens (Human)), log10(IC50) = 1.41

Let us move to another entry and its log10(IC50).
# lookup: Cc1cc(-c2cc(Cl)ccc2OCCn2c(C)nc3cc(C(F)(F)F)c(-c4ccns4)c(C#N)c3c2=O)c2scc(C(=O)O)c2n1 [compound 348] on recombinant eIF4E (Homo sapiens (Human)), log10(IC50) = 1.19
